- TARGET SYSTEM: µ opioid receptor of the guinea pig isolated ileum (guinea pig, UniProt P97266 1-98)
- Sequence (P97266 whole entry): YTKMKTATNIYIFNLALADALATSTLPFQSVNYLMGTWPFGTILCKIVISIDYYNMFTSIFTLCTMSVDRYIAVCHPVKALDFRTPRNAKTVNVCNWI
- PROCEDURE SUMMARY: cell-based or functional assay
Square brackets hold non-standard residues; d marks the D form. Ends that are not written are not given here. * marks the point of attachment. NH(3,5-(CF3)2-benzyl) = FC(F)(F)c1cc(CN*)cc(C(F)(F)F)c1; OBzl(3,5-(CF3)2) = FC(F)(F)c1cc(CO*)cc(C(F)(F)F)c1; Dmt = Cc1cc(O)cc(C)c1C[C@H](N)C(=O)O; NHBn = c1ccc(CN*)cc1
Note to self: GPI/LMMP IC50 under 100 nM means label 1, ties and anything higher get label 0.

Examples from the recorded data:
Record [Dmt][dA]GFMPLW-NHBn (also called TY034) [DmtDAlaGlyPheMetProLeuTrpNHBn] : is its GPI/LMMP IC50 strictly below 100 nM? label 1

Record Y[dA]GFMPLW-{OBzl(3,5-(CF3)2)} (also called TY005) [TyrDAlaGlyPheMetProLeuTrpOBn(CF3)2] : is its GPI/LMMP IC50 strictly below 100 nM? label 0

***
Record Y[dA]GFMPLW-NHBn (also called TY025) [TyrDAlaGlyPheMetProLeuTrpNHBn] : is its GPI/LMMP IC50 strictly below 100 nM? label 1

Record [Dmt][dA]GFMPLW-{NH(3,5-(CF3)2-benzyl)} (also called TY032) [DmtDAlaGlyPheMetProLeuTrpNHBn(CF3)2] : is its GPI/LMMP IC50 strictly below 100 nM? label 1

Record Y[dA]GFMPLW-{NH(3,5-(CF3)2-benzyl)} (also called TY027) [TyrDAlaGlyPheMetProLeuTrpNHBn(CF3)2] : is its GPI/LMMP IC50 strictly below 100 nM? label 0
